B1: TPR t1 (parent)
chain: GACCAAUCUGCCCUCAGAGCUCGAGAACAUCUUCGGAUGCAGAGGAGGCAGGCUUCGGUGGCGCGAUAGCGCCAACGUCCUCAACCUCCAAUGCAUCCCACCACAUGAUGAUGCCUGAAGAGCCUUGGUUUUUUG

variants of: B1; assay: polymerase ribozyme fitness, log enrichment relative to wild type (log ratio); higher = more active; in vitro selection for triplet polymerase activity
Each record's class is read off its polymerase ribozyme fitness (log ratio) using these ranges: c1 = under -4, c2 = from -4 up to -3, c3 = -3 and over

Worked examples, 5 variants total:
[[record]]
biosequence = "GCCCAAUCUGCCCUCAGAGCUCGAGAACAUCUUCGGAUGCAGAGGAGGCAGGCUUCGGUGGCGCGAUAGCGCCAACGUCCUCAACCUGCAAUGCAUCCCACCAAAUGAUGAGGCCUGAAGAGCCUUGGUUUUUUG"
assigned_label = "c1"

[[record]]
biosequence = "GACCAAUCUGCCCUUAGAGCUCGAGAACAUCUUCGGAUGCAGAGGAGGCAGGCUUCGGUGGCGCGAUAGCGCUAACGUCCUCGACCUCCAAUGCAUCCCACCACAUGAUGAUGCCUGAAGAGCCUUGGUUUUUUG"
assigned_label = "c3"

[[record]]
biosequence = "GACCAAUCUGCCCUCAGAGCUCGAGAACAUCUUCGGAUGCAAAGGAGGCAGGCUCCGGUGGCGCGAUAGCGCCAACGUCCUCAACCUCCAAUGCCUCCCACCACAUGAAGAUGCCUGAAGAGCCUUGGUUUUUUG"
assigned_label = "c1"

[[record]]
biosequence = "GACCAAUCUGCCCUCAGAGCUCGAGAACAUCUUCGGAUGCAGAGGAUGCAGGCUUCGGUGGCGCGAUAGUGCCAACGUCCUCAACCUUCAAUGCAUCCCACCACAUGAUGAUGCCUGAAGAGCCUUGGUUUUUUG"
assigned_label = "c2"

[[record]]
biosequence = "GACCAAUCUGCCCUCAGAGGUCGAGAACAUCUUCGGAUGCAGAGGAGGCAGGCUUCGGUGGCGCGAUAGCGCCAACGUCCUCAACCUCCAAUGCAUCCGACCACAUGAUCAUGCCUGAAGAGCCUUGGUUUUUUG"
assigned_label = "c1"


Query: Where would GACCAAUCUGCCCUCAGAGCUCGAGAACAUCUUCGGAUGCAGAGGAGGCAGGCUUCGGUGGCACGAUAGCGGCAACGUCCUCAACCUCCAAUGCAUCCCACCACAUGAUGAUGCCUGAAGAGCCUUGGUUUUUUG land among the classes by reported polymerase ribozyme fitness (log ratio)?
Response: c2

Query: Where would GACCAAUCUGCCCUCAGAGCUCGAGAACAUCUUCGGAUGCAGAGGAGGCAGGCUUCGGUGGCGCGAUAGCGCCAACGUCCUCAACCUCCAAUGCAUCCCAUCACAAGAUGAUGCCUGAAGAGCCUUGGUUUUUUG land among the classes by reported polymerase ribozyme fitness (log ratio)?
Response: c3

Query: Where would GACCAAUCUGCCCUCAGAGCUCGAGAACAUCUUCGGAUGCAGAGGAGGCCGGCUUCGGUGGCGCGAUAGGGCCAACGUCCUCAACCUCCAAUGCAUCCCACCACAUGAUGAUGCCUGAAGAGCCUUGGUUUUUUG land among the classes by reported polymerase ribozyme fitness (log ratio)?
Response: c2

Query: Where would GACCAAUCUGCCCUCAGAGCUCGAGAACAUCUUCGGAUGCAGAGGAGGCAGGCUUCGGUGGCGCGAUAGCGGCAACGUCCUCAACCUCCAAUGCAUCCCACCACAUGGUGAUGCCUGAAAAGCGUUGGUUGUUUG land among the classes by reported polymerase ribozyme fitness (log ratio)?
Response: c3
